# system: T1, human CD3 (human, UniProt P07766 23-207; P04234 22-171; P09693 23-182)
# T1 construct: whole, on cells; also called hCD3; CD3 on Jurkat cells
# T1 sequence (P07766 23-207, chain 1 of 3): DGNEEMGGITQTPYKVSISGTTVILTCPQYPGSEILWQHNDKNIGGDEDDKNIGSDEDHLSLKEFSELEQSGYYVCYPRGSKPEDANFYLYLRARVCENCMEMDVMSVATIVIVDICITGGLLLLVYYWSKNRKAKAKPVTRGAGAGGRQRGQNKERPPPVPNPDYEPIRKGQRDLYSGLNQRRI
# T1 sequence (P04234 22-171, chain 2 of 3): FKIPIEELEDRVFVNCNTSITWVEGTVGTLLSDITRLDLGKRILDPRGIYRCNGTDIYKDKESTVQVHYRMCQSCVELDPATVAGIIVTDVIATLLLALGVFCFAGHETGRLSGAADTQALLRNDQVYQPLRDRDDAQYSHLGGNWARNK
# T1 sequence (P09693 23-182, chain 3 of 3): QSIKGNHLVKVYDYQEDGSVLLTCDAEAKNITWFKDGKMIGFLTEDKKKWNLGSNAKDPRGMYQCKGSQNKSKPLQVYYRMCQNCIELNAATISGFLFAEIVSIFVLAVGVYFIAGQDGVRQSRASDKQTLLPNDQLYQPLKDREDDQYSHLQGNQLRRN
# measurement_notes: FACS on Jurkat cells
As shown below, each of these binders has a reported pEC50 value.
Just so you know, pEC50 here is -log10 of the concentration in molar units; reply with that number alone.

{"columns": ["binder", "pEC50"],
 "data": [
  ["hu40E9-L2H11 (antibody, V domains shown) VH: EVQLVQSGAEVKKPGSSVKVSCKASGYTFSSYVIHWVRQAPGQGLEWMGYINPYNDVIKYNEKFKGRVTLTSDKSTSTAYMELSSLRSEDTAVYYCARDSYYSYRAFAYWGQGTLVTVSS VL: EIVLTQSPDFQSVTPKEKVTITCSASSSVSYMHWYQQKPDQSPKRLIYDTSKLASGVPSRFSGSGSGTDFTLTINSLEAEDAATYYCQQWSSNPPTFGGGTKVEIK", 8.30],
  ["hu40E9-L2H15 (antibody, V domains shown) VH: EVQLVQSGAEVKKPGSSVKVSCKASGYTFSSYVIHWVRQAPGQGLEWMGYINPYNDVIKYNEKFKGRVTLTSDKSTSTAYMELSSLRSEDTAVYYCARGSYYSYDGFAYWGQGTLVTVSS VL: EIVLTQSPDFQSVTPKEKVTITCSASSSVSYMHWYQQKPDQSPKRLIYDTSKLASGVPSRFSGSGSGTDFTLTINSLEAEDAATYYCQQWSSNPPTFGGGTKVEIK", 7.29]
]}

Turning now to a further binder:
Which pEC50 value is on record for hu40E9-L4H7 (antibody, V domains shown) VH: EVQLVQSGAEVKKPGSSVKVSCKASGYTFSSYVIHWVRQAPGQGLEWMGYINPGNGVIKYNEKFKGRVTLTSDKSTSTAYMELSSLRSEDTAVYYCARDSYSSYDGFAYWGQGTLVTVSS VL: EIVLTQSPDFQSVTPKEKVTITCSASSSVSYMHWYQQKPDQSPKRLIYDTSKLASGVPSRFSGSGSGTDFTLTINSLEAEDAATYYCQQWRSRPPTFGGGTKVEIK ?
8.82
